Origin of measurements: patent US20220282217A1

- targetEntity: HLA-A02.01 (Homo sapiens, UniProt P04439, D140Y/D185E/D98H/E176V/E277Q/G131W/G231S/I119V/I121R/I166T/I218V/N151K/N90K/P208A/P217A/Q86G/Q94H/R138H/R169H)
- Construct: made in house; host or cells: E. coli
- testMethodNotes: Class I MHC peptide binding stability (pMHC-I dissociation, 125I-labeled light chain)
- measurementConditions: allele A02.01
Where a SMILES comes first, the peptide text is derived from it.
Label condition met when Stability (T1/2 (h)) is strictly below 0.4 h; otherwise label condition not met.

Field: example entries. Status: answers known.
molecule: CC(C)C[C@H](NC(=O)[C@H](Cc1ccccc1)NC(=O)[C@H](CO)NC(=O)[C@H](CC(C)C)NC(=O)[C@H](CS)NC(=O)[C@H](CO)NC(=O)[C@H](Cc1ccccc1)NC(=O)[C@H](CC(C)C)NC(=O)[C@@H](N)CCCCN)C(=O)O (H-KLFSCLSFL-OH; N-terminus and C-terminus assumed)
classLabel: condition not met
//
molecule: CC(C)C[C@H](NC(=O)[C@H](CO)NC(=O)[C@H](CS)NC(=O)[C@H](CCC(=O)O)NC(=O)[C@H](Cc1c[nH]c2ccccc12)NC(=O)[C@H](CC(C)C)NC(=O)[C@H](C)NC(=O)[C@H](CC(C)C)NC(=O)[C@@H](N)CC(C)C)C(=O)O
classLabel: condition not met
//
molecule: CC(C)C[C@H](NC(=O)CN)C(=O)N[C@H](C(=O)N[C@@H](CC(=O)O)C(=O)N[C@@H](CCC(=O)O)C(=O)N[C@@H](CCC(N)=O)C(=O)N[C@@H](CCC(N)=O)C(=O)N[C@@H](CCC(=O)O)C(=O)N[C@H](C(=O)O)C(C)C)C(C)C
classLabel: condition not met

For this molecule, is Stability (T1/2 (h)) lower than 0.4 h? CC(C)C[C@H](NC(=O)[C@H](CC(C)C)NC(=O)[C@@H](NC(=O)[C@H](CC(=O)O)NC(=O)[C@H](C)NC(=O)[C@H](CC(C)C)NC(=O)[C@@H](N)CS)C(C)C)C(=O)N[C@@H](CO)C(=O)N[C@H](C(=O)O)C(C)C (H-CLADVLLSV-OH; N-terminus and C-terminus assumed)
condition not met

Can you handle CSCC[C@H](NC(=O)[C@@H](N)CO)C(=O)N[C@@H](CC(C)C)C(=O)N[C@H](C(=O)N[C@@H](CC(=O)O)C(=O)N[C@@H](CO)C(=O)N[C@@H](CC(C)C)C(=O)N[C@@H](Cc1ccccc1)C(=O)N[C@@H](CC(C)C)C(=O)O)[C@@H](C)O (H-SMLTDSLFL-OH; N-terminus and C-terminus assumed) next?
condition not met

Can you handle `CC[C@H](C)[C@H](NC(=O)[C@H](CC(C)C)NC(=O)[C@@H](N)CCC(N)=O)C(=O)N[C@@H](CCSC)C(=O)N[C@@H](CCC(N)=O)C(=O)N[C@@H](CC(C)C)C(=O)N[C@@H](CCSC)C(=O)N1CCC[C@H]1C(=O)N[C@@H](Cc1ccccc1)C(=O)O` next?
condition met
